Tested on: L1210
Test: In vitro concentration required to inhibit the growth of L1210 cells in culture by 50% following a 48 hr exposure.
Assay type: functional
Conditions: Mus musculus, L1210, 48 h; read-out: ID50 (the source's name)
MEASUREMENT_KIND: IC50 (nM)
Give your result in nM as a bare value.

Solved cases below.
Q: Record lookup: for L1210, what IC50 belongs to CN(CCO)c1cc(NS(C)(=O)=O)ccc1Nc1c2ccccc2nc2ccccc12 ?
Ans: 1400

Q: Try CS(=O)(=O)Nc1ccc(Nc2c3ccccc3nc3ccccc23)c(O)c1 next.
Ans: 4000

Further cases:
Q: Record lookup: for L1210, what IC50 belongs to CCCCCCCNc1cc(NS(C)(=O)=O)ccc1Nc1c2ccccc2nc2ccccc12 ?
Ans: 181

Q: Try CCCCNc1cc(NS(C)(=O)=O)ccc1Nc1c2ccccc2nc2ccccc12 next.
Ans: 185

Q: Try CCCCCCCS(=O)(=O)Nc1ccc(Nc2c3ccccc3nc3ccccc23)c(NC)c1 next.
Ans: 397

Q: Try CS(=O)(=O)Nc1ccc(Nc2c3ccccc3nc3ccccc23)c(NC2CCCCC2)c1 next.
Ans: 470

Q: Try CCCCCCS(=O)(=O)Nc1ccc(Nc2c3ccccc3nc3ccccc23)c(NC)c1 next.
Ans: 443

Q: Try CS(=O)(=O)Nc1ccc(Nc2c3ccccc3nc3ccccc23)c(NCCO)c1 next.
Ans: 86

Q: Try CCS(=O)(=O)Nc1ccc(Nc2c3ccccc3nc3ccccc23)c(NC)c1 next.
Ans: 43

Q: Try CCCCCCNc1cc(NS(C)(=O)=O)ccc1Nc1c2ccccc2nc2ccccc12 next.
Ans: 136

Q: Try CS(=O)(=O)Nc1ccc(Nc2c3ccccc3nc3ccccc23)c(Cl)c1 next.
Ans: 1300

Q: Try CS(=O)(=O)Nc1ccc(Nc2c3ccccc3nc3ccccc23)c(NCC(O)CO)c1 (stereo unspecified) next.
Ans: 219

Q: Try CS(=O)(=O)Nc1ccc(Nc2c3ccccc3nc3ccccc23)c(F)c1 next.
Ans: 800

Q: Try CCCCCCCCS(=O)(=O)Nc1ccc(Nc2c3ccccc3nc3ccccc23)c(NC)c1 next.
Ans: 217

Q: Try CS(=O)(=O)Nc1ccc(Nc2c3ccccc3nc3ccccc23)c(N)c1 next.
Ans: 1200

---

Tested on: Nucleic Acid
Experiment: Binding constant for DNA by ethidium bromide displacement
Assay type: nucleic-acid assay
MEASUREMENT_KIND: Log K
// print number alone

Solved cases below.
Q: I would be grateful if you could share the reported Log K for CCCCCCCCS(=O)(=O)Nc1ccc(Nc2c3ccccc3nc3ccccc23)c(NC)c1 .
Ans: 6.51

Q: Try CCCCNc1cc(NS(C)(=O)=O)ccc1Nc1c2ccccc2nc2ccccc12 next.
Ans: 6.36

Q: Try CCCCCS(=O)(=O)Nc1ccc(Nc2c3ccccc3nc3ccccc23)c(NC)c1 next.
Ans: 6.58

Further cases:
Q: I would be grateful if you could share the reported Log K for CS(=O)(=O)Nc1ccc(Nc2c3ccccc3nc3ccccc23)c(N2CCOCC2)c1 .
Ans: 5.26

Q: Try CCCCCCCS(=O)(=O)Nc1ccc(Nc2c3ccccc3nc3ccccc23)c(NC)c1 next.
Ans: 6.44

Q: Try CCCCCCNc1cc(NS(C)(=O)=O)ccc1Nc1c2ccccc2nc2ccccc12 next.
Ans: 6.36

Q: Try CCOc1cc(NS(C)(=O)=O)ccc1Nc1c2ccccc2nc2ccccc12 next.
Ans: 5.68

Q: Try COc1cc(NS(C)(=O)=O)ccc1Nc1c2ccccc2nc2ccccc12 next.
Ans: 5.57

Q: Try CCCCS(=O)(=O)Nc1ccc(Nc2c3ccccc3nc3ccccc23)c(NC)c1 next.
Ans: 6.66

Q: Try CN(CCO)c1cc(NS(C)(=O)=O)ccc1Nc1c2ccccc2nc2ccccc12 next.
Ans: 5.52
